target: EZH2 (Homo sapiens (Human), UniProt Q15910); assay: PRC2 enzyme assay on peptide substrates; assay type: biochemical; conditions: PRC2 enzyme assays on peptide substrates; 4 nM enzyme, 30 min preincubation at 25° C.; read-out: EZH2 IC50
Sequence (Q15910 other isoform, or with tags, fused parts or gaps): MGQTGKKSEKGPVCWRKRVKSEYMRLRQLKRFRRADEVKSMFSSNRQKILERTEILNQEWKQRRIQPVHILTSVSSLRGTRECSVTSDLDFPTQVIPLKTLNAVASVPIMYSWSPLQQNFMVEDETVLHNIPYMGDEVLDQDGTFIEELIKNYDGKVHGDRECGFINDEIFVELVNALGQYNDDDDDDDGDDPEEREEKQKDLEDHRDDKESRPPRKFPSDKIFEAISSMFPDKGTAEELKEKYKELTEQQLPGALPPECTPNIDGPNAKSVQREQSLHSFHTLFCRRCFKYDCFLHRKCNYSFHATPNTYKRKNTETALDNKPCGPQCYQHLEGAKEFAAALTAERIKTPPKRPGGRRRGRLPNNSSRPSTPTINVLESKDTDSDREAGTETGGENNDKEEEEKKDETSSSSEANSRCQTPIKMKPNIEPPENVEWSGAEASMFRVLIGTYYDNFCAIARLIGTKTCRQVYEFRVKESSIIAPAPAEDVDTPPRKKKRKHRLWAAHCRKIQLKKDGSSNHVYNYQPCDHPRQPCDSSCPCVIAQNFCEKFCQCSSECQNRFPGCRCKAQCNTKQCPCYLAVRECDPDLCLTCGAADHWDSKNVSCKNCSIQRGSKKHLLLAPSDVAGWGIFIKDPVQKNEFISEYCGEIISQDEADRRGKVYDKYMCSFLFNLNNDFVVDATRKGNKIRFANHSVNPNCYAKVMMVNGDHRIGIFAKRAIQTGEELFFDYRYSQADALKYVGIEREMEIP
Sequence (O75530 whole entry partner): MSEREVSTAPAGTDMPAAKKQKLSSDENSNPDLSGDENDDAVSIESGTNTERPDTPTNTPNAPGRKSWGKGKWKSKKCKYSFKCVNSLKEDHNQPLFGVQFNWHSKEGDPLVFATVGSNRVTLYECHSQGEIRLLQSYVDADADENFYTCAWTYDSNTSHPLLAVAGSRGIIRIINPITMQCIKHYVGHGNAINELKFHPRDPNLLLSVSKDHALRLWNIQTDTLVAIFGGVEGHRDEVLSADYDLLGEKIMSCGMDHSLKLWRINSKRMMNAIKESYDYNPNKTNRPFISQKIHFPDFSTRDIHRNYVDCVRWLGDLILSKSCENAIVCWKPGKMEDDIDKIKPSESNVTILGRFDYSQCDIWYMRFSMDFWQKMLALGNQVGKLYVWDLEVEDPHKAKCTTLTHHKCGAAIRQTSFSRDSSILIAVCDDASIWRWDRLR
Sequence (Q15022 whole entry partner): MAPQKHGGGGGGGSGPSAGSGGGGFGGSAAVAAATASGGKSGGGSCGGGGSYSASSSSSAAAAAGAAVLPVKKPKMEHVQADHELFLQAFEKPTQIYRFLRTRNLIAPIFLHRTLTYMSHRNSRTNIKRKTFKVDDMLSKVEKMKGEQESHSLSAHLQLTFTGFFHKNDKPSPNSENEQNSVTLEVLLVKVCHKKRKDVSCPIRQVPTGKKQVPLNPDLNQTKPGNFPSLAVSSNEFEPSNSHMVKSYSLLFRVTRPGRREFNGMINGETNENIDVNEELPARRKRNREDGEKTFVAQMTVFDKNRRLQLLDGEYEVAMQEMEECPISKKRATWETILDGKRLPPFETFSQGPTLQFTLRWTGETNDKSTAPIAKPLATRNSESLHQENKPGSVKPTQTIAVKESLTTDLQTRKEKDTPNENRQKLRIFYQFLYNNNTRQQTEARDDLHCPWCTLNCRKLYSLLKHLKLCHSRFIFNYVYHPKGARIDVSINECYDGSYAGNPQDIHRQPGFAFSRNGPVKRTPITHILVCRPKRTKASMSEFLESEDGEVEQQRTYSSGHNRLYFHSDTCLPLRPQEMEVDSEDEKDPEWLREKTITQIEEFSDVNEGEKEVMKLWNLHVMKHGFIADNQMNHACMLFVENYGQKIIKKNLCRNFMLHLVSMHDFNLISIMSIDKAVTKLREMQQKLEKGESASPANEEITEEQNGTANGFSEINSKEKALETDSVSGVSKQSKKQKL
Sequence (Q09028 whole entry partner): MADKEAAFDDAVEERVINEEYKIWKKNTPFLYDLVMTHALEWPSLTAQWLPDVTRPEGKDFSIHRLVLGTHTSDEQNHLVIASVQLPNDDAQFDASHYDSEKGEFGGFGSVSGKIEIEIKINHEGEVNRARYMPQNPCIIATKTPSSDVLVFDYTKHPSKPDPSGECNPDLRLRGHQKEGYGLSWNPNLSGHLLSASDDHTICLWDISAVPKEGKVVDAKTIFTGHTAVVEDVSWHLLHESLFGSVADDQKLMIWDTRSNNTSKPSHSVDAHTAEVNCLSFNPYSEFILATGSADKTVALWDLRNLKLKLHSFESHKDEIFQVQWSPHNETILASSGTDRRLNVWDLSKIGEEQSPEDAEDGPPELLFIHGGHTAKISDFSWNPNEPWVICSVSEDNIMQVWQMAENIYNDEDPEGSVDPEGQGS
Measurement Kind: IC50

Compound: Cc1cc(C)c(CNC(=O)c2cc(-c3cn[nH]c3)nc3c2cnn3C(C)C)c(=O)[nH]1
Measurement Kind: IC50
Data Value: 1 to 3 µM

Compound: Cc1cc(C)c(CNC(=O)c2cc(C3=CCN(C(=O)CN)CC3)cc3c2cnn3C2CCCC2)c(=O)[nH]1
Measurement Kind: IC50
Data Value: < 0.3 µM

Compound: Cc1cc(C)c(CNC(=O)c2cc(Br)cc3c2cnn3C2CCN(C(C)C)CC2)c(=O)[nH]1
Measurement Kind: IC50
Data Value: 1 to 3 µM

Compound: Cc1cc(C)c(CNC(=O)c2cc(N3CCC(O)CC3)nc3c2cnn3C(C)C)c(=O)[nH]1
Measurement Kind: IC50
Data Value: 1 to 3 µM

Compound: CC(=O)N1CCC(c2cc(C(=O)NCc3c(C)cc(C)[nH]c3=O)c3cnn(C(C)C)c3n2)CC1
Measurement Kind: IC50
Data Value: 0.3 to 1 µM

Compound: Cc1cc(C)c(CNC(=O)c2cc(C3=CCNCC3)nc3c2cnn3C(C)C)c(=O)[nH]1
Measurement Kind: IC50
Data Value: 0.3 to 1 µM

Compound: Cc1cc(C)c(CNC(=O)c2cc(C3CCN(C(=O)C(O)CN)CC3)nc3c2cnn3C(C)C)c(=O)[nH]1 (stereo not shown)
Measurement Kind: IC50
Data Value: 1 to 3 µM

Compound: Cc1cc(C)c(CNC(=O)c2cc(-c3ccc(CN)cc3)nc3c2cnn3C(C)C)c(=O)[nH]1
Measurement Kind: IC50
Data Value: < 0.3 µM

Compound: Cc1cc(C)c(CNC(=O)c2cc(N3CCC(N4CCN(CCS(C)(=O)=O)CC4)CC3)nc3c2cnn3C(C)C)c(=O)[nH]1
Measurement Kind: IC50
Data Value: 1 to 3 µM

Compound: Cc1cc(C)c(CNC(=O)c2cc(-c3ccc(COCCCN4CCOCC4)cc3)cc3c2cnn3C2CCCC2)c(=O)[nH]1
Measurement Kind: IC50
Data Value: < 0.3 µM

Compound: Cc1cc(C)c(CNC(=O)c2cc(-c3ccc(C)c(S(N)(=O)=O)c3)cc3c2cnn3C2CCCC2)c(=O)[nH]1
Measurement Kind: IC50
Data Value: < 0.3 µM

Compound: CNC(=O)c1cc(C(=O)NCc2c(C)cc(C)[nH]c2=O)c2cnn(C(C)C)c2n1
Measurement Kind: IC50
Data Value: 1 to 3 µM

Compound: Cc1cc(C)c(CNC(=O)c2cc(-c3cccc(CN(C)CCN4CCCC4)c3)cc3c2cnn3C(C)C)c(=O)[nH]1
Measurement Kind: IC50
Data Value: 0.3 to 1 µM

Compound: Cc1cc(C)c(CNC(=O)c2cc(N(C)CCN(C)C)nc3c2cnn3C(C)C)c(=O)[nH]1
Measurement Kind: IC50
Data Value: 3 to 10 µM

Compound: Cc1cc(C)c(CNC(=O)c2cc(C3=CC(C)(C)NC(C)(C)C3)cc3c2cnn3C2CCCC2)c(=O)[nH]1
Measurement Kind: IC50
Data Value: < 0.3 µM

Compound: Cc1cc(C)c(CNC(=O)c2cc(N(C)C)nc3c2cnn3C(C)C)c(=O)[nH]1
Measurement Kind: IC50
Data Value: 3 to 10 µM
